experiment: total protein half-life in vivo (active degradation + dilution); higher = more stable protein; conditions: E. coli NCM3722 delta-hslV; growth: N-lim chemostat; doubling time 6 h
Reported total protein half-life in vivo is given for each of the following sequences.
Give your result in h as a bare value.

The following sequences have reported results that may help.
Seq Text	total protein half-life in vivo, h
MRTVLNILNFVLGGFATTLGWLLATLVSIVLIFTLPLTRSCWEITKLSLVPYGNEAIHVDELNPAGKNVLLNTGGTVLNIFWLIFFGWWLCLMHIATGIAQCISIIGIPVGIANFKIAAIALWPVGRRVVSVETAQAAREANARRRFE [P0AB12]	5.92
MTVRVAINGFGRIGRNVVRALYESGRRAEITVVAINELADAAGMAHLLKYDTSHGRFAWEVRQERDQLFVGDDAIRVLHERSLQSLPWRELGVDVVLDCTGVYGSREHGEAHIAAGAKKVLFSHPGSNDLDATVVYGVNQDQLRAEHRIVSNASCTTNCIIPVIKLLDDAYGIESGTVTTIHSAMHDQQVIDAYHPDLRRTRAASQSIIPVDTKLAAGITRFFPQFNDRFEAIAVRVPTINVTAIDLSVTVKKPVKANEVNLLLQKAAQGAFHGIVDYTELPLVSVDFNHDPHSAIVDGTQTRVSGAHLIKTLVWCDNEWGFANRMLDTTLAMATVAFR [P0A9B6]	4.07

Attention now turns to another entry.
Entry MPKLRLIGLTLLALSATAVSHAEETRYVSDELNTWVRSGPGDHYRLVGTVNAGEEVTLLQTDANTNYAQVKDSSGRTAWIPLKQLSTEPSLRSRVPDLENQVKTLTDKLTNIDNTWNQRTAEMQQKVAQSDSVINGLKEENQKLKNELIVAQKKVDAASVQLDDKQRTIIMQWFMYGGGVLGLGLLLGLVLPHLIPSRKRKDRWMN [P0ADT8] — recorded total protein half-life in vivo = 6.56

###

Reported total protein half-life in vivo is given for each of the following sequences.
assay: total protein half-life in vivo (active degradation + dilution); higher = more stable protein; details: E. coli NCM3722 delta-lon; growth: N-lim chemostat; doubling time 6 h
Give your result in h as a bare value.

Seq Text	total protein half-life in vivo [h]
MNKHTEHDTREHLLATGEQLCLQRGFTGMGLSELLKTAEVPKGSFYHYFRSKEAFGVAMLERHYAAYHQRLTELLQSGEGNYRDRILAYYQQTLNQFCQHGTISGCLTVKLSAEVCDLSEDMRSAMDKGARGVIALLSQALENGRENHCLTFCGEPLQQAQVLYALWLGANLQAKISRSFEPLENALAHVKNIIATPAV	6.18

Entry MQNTTHDNVILELTVRNHPGVMTHVCGLFARRAFNVEGILCLPIQDSDKSHIWLLVNDDQRLEQMISQIDKLEDVVKVQRNQSDPTMFNKIAVFFQ [P0ADF8] — recorded total protein half-life in vivo = 2.35

###

test: total protein half-life in vivo (active degradation + dilution); higher = more stable protein; conditions: E. coli NCM3722 delta-hslV; growth: N-lim chemostat; doubling time 6 h
Is total protein half-life in vivo at least 5 h? Then Condition met. If not, Condition not met.

Seq Text	Classification
MTIYFINWVADYELKMIQYLKKKYKIKNITTPKKYNWINKKISKIGMDNAWLGRLFIKHYLNDIKKDDIIIINDSVVNKGINKQILKNINCHKVLLLRNTVGEDFILDNANYFDIIYDFEHRFIGNEKIKAIEQFFPIGMDEIRNYSLSDKNNSQPICFFLGRDKGRLQIINELAERLTTLGCKLDFNVVKDKTSSTTSKYLIEKQISYEENIRRTLNANIIVDITKENQSGWTLRILEALFFNKKLITNNINVFGSEIYSESRFFIIGHDDWDKLEYFINSSVKPMDYDSLYKFSPDKMMSTIVSDFIDK	Condition met
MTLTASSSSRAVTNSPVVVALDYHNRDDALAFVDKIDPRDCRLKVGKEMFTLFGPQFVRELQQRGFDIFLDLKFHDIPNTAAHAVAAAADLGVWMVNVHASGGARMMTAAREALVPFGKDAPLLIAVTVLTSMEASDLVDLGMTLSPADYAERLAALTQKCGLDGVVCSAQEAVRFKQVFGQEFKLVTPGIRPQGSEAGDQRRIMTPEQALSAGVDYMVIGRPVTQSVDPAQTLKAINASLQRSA	Condition not met
MRYHGDMLLTTPVISTLKQNYPDAKIDMLLYQDTIPILSENPEINALYGISNKGAGTFDKIKNVLSLIKTLRANNYDLVINLTDQWMVALLVRCLPARMKISQLYGHRQHGIWKKSFTHLAPIHGTHIVERNLSVLEPLGITDFYTDTTMSYAEDCWKKMRRELDALGVKDHYVVIQPTARQIFKCWDNDKFSKVIDALQQRGYQVVLTCGPSADDLACVDEIARGCETKPITGLAGKTRFPELGALIDHAVLFIGVDSAPGHIAAAVKTPVISLFGATDHVFWRPWTENIIQFWAGNYQKMPTRHELDRNKKYLSVIPAEDVIAATEKLLPEDAPSADRNAQL	Condition met
MKNFEVLQPLQNSLSGLPLWVSERILQQINQLTHYEPVIGIMGKTGAGKSSLCNALFAGEVSPVSDVAACTRDPLRFRLQIGEHFMTIVDLPGVGESGVRDTEYAALYREQLPRLDLILWLIKADDRALATDEHFYRQVIGEAYRHKMLFVISQSDKAEPTSGGNILSTEQKQNISRKICLLHELFQPVHPVCAVSVRLQWGLRVMAERMIKCLPREASSPVVALLQHPFRTTVAREQARDDFGETVGAILDTVSTFPLIPAPVRTIIQAVRSSVVSVARAVWDFFF	Condition not met
MPGLKITLLQQPLVWMDGPANLRHFDRQLEGITGRDVIVLPEMFTSGFAMEAAASSLAQDDVVNWMTAKAQQCNALIAGSVALQTESGSVNRFLLVEPGGTVHFYDKRHLFRMADEHLHYKAGNARVIVEWRGWRILPLVCYDLRFPVWSRNLNDYDLALYVANWPAPRSLHWQALLTARAIENQAYVAGCNRVGSDGNGCHYRGDSRVINPQGEIIATADAHQATRIDAELSMAALREYREKFPAWQDADEFRLW	Condition not met

Has MSQPLLSVNGLMMRFGGLLAVNNVNLELYPQEIVSLIGPNGAGKTTVFNCLTGFYKPTGGTILLRDQHLEGLPGQQIARMGVVRTFQHVRLFREMTVIENLLVAQHQQLKTGLFSGLLKTPSFRRAQSEALDRAATWLERIGLLEHANRQASNLAYGDQRRLEIARCMVTQPEILMLDEPAAGLNPKETKELDELIAELRNHHNTTILLIEHDMKLVMGISDRIYVVNQGTPLANGTPEQIRNNPDVIRAYLGEA [P0A9S7] a recorded total protein half-life in vivo greater than or equal to 5 h? Condition met

Has MLAKRIIPCLDVRDGQVVKGVQFRNHEIIGDIVPLAKRYAEEGADELVFYDITASSDGRVVDKSWVSRVAEVIDIPFCVAGGIKSLEDAAKILSFGADKISINSPALADPTLITRLADRFGVQCIVVGIDTWYDAETGKYHVNQYTGDESRTRVTQWETLDWVQEVQKRGAGEIVLNMMNQDGVRNGYDLEQLKKVREVCHVPLIASGGAGTMEHFLEAFRDADVDGALAASVFHKQIINIGELKAYLATQGVEIRIC a recorded total protein half-life in vivo greater than or equal to 5 h? Condition not met

Has MTPEHLPTEQYEAQLAEKVVRLQSMMAPFSDLVPEVFRSPVSHYRMRAEFRIWHDGDDLYHIIFDQQTKSRIRVDSFPAASELINQLMTAMIAGVRNNPVLRHKLFQIDYLTTLSNQAVVSLLYHKKLDDEWRQEAEALRDALRAQNLNVHLIGRATKTKIELDQDYIDERLPVAGKEMIYRQVENSFTQPNAAMNIQMLEWALDVTKGSKGDLLELYCGNGNFSLALARNFDRVLATEIAKPSVAAAQYNIAANHIDNVQIIRMAAEEFTQAMNGVREFNRLQGIDLKSYQCETIFVDPPRSGLDSETEKMVQAYPRILYISCNPETLCKNLETLSQTHKVERLALFDQFPYTHHMECGVLLTAK a recorded total protein half-life in vivo greater than or equal to 5 h? Condition not met

Has MSNTDASGEKRVTGTSERREQIIQRLRQQGSVQVNDLSALYGVSTVTIRNDLAFLEKQGIAVRAYGGALICDSTTPSVEPSVEDKSALNTAMKRSVAKAAVELIQPGHRVILDSGTTTFEIARLMRKHTDVIAMTNGMNVANALLEAEGVELLMTGGHLRRQSQSFYGDQAEQSLQNYHFDMLFLGVDAIDLERGVSTHNEDEARLNRRMCEVAERIIVVTDSSKFNRSSLHKIIDTQRIDMIIVDEGIPADSLEGLRKAGVEVILVGE [P0ACK2] a recorded total protein half-life in vivo greater than or equal to 5 h? Condition not met

Has MSFELPALPYAKDALAPHISAETIEYHYGKHHQTYVTNLNNLIKGTAFEGKSLEEIIRSSEGGVFNNAAQVWNHTFYWNCLAPNAGGEPTGKVAEAIAASFGSFADFKAQFTDAAIKNFGSGWTWLVKNSDGKLAIVSTSNAGTPLTTDATPLLTVDVWEHAYYIDYRNARPGYLEHFWALVNWEFVAKNLAA [P0AGD3] a recorded total protein half-life in vivo greater than or equal to 5 h? Condition not met

meta.source: the supplement of paper PMC11246515
